Where do these numbers come from? They come from patent US20210395713A1.

# assaySystem: T1, purified recombinant MHC II protein, allele DRB1*0801 (human)
# T1 construct: bought from Benaroya Research Institute; also called MHC-II DR molecule
# assayMethodText: MHC II competition binding assay
What pIC50 was measured for each of the following?
pIC50 is defined as minus the log10 of a concentration measured in mol/L.

Give the measured pIC50 of GVHRQWYMHLSKYNVKVGD [cluster 3 wild-type (C3WT) epitope peptide] . 6.85

Same read-out for GVHRQWYMHMSKYNVKVGD (synthetic mutated peptide of the lysostaphin catalytic domain; also called L83M) [cluster 3 peptide with Leu83Met] ? 6.43
